# targetSystem: A*0201 class I MHC molecules in cells infected with the PR8 strain of influenza A virus (Homo sapiens, UniProt P04439, D140Y/D185E/D98H/E176V/E277Q/G131W/G231S/I119V/I121R/I166T/I218V/L300P/L318F/N151K/N90K/P208A/P217A/Q86G/Q94H/R138H/R169H/T345S)
# Assay type: cell-based
Catalogue of Fold Increase values

>  <substance>
KLDEGNSL

>  <Fold Increase>
4.32

$$$$
>  <substance>
GVYGDVHRV

>  <Fold Increase>
2.9

$$$$
>  <substance>
FAITAIKGV

>  <Fold Increase>
3.49

$$$$
>  <substance>
GIVEGLMTTV

>  <Fold Increase>
3.1

$$$$
>  <substance>
GLIEKNIEL (listed as Homo sapiens)

>  <Fold Increase>
1.58

$$$$
>  <substance>
FLAEEGFYKF

>  <Fold Increase>
2.98

$$$$
>  <substance>
ALLAGSEYLKL

>  <Fold Increase>
1.51

$$$$
>  <substance>
TLWPEVQKL

>  <Fold Increase>
2.97

$$$$
>  <substance>
FLPSYIIDV

>  <Fold Increase>
2.57

$$$$
>  <substance>
GVAESIHLWEV

>  <Fold Increase>
2.89

$$$$
>  <substance>
YAYDGKDYIA

>  <Fold Increase>
1.6

$$$$
>  <substance>
TLAKYLMEL

>  <Fold Increase>
6.81

$$$$
>  <substance>
AVSDGVIKV

>  <Fold Increase>
8.98

$$$$
>  <substance>
ALMDEVVKA

>  <Fold Increase>
2.59

$$$$
>  <substance>
KLDPTKTTL

>  <Fold Increase>
2.93

$$$$
>  <substance>
GLQDFDLLRV

>  <Fold Increase>
2.29

$$$$
>  <substance>
GLATDVQTV

>  <Fold Increase>
3.5

$$$$
>  <substance>
RVPPPPPIA

>  <Fold Increase>
6.54

$$$$
>  <substance>
KIIDEDGLLNL

>  <Fold Increase>
1.56

$$$$
>  <substance>
KIFEMGPVFTL

>  <Fold Increase>
6.45

$$$$
>  <substance>
ALQELLSKGL

>  <Fold Increase>
2.8

$$$$
>  <substance>
KIADFGWSV

>  <Fold Increase>
2.26

$$$$
>  <substance>
TLLEDGTFKV

>  <Fold Increase>
1.67

$$$$
>  <substance>
SLLDIIEKV

>  <Fold Increase>
2.56

$$$$
>  <substance>
ILYDIPDIRL

>  <Fold Increase>
5.99

$$$$
>  <substance>
NDHFVKL

>  <Fold Increase>
7.75

$$$$
>  <substance>
LLLDVPTAAVQA

>  <Fold Increase>
6.24

$$$$
>  <substance>
GLMTTVHAIT

>  <Fold Increase>
2.5

$$$$
>  <substance>
FMFDEKLVTV

>  <Fold Increase>
1.99

$$$$
>  <substance>
RLTPKLMEV

>  <Fold Increase>
2.2

$$$$
>  <substance>
VINDVRDIFL

>  <Fold Increase>
1.71

$$$$
>  <substance>
KLLDFGSLSNL

>  <Fold Increase>
3.57

$$$$
>  <substance>
YMEEIYHRI

>  <Fold Increase>
3.98

$$$$
>  <substance>
TLIGLSIKV

>  <Fold Increase>
2.28

$$$$
